- study.system: Cystic fibrosis transmembrane conductance regulator (Homo sapiens, UniProt P13569, N1303K)
- Sequence (P13569 whole entry N1303K): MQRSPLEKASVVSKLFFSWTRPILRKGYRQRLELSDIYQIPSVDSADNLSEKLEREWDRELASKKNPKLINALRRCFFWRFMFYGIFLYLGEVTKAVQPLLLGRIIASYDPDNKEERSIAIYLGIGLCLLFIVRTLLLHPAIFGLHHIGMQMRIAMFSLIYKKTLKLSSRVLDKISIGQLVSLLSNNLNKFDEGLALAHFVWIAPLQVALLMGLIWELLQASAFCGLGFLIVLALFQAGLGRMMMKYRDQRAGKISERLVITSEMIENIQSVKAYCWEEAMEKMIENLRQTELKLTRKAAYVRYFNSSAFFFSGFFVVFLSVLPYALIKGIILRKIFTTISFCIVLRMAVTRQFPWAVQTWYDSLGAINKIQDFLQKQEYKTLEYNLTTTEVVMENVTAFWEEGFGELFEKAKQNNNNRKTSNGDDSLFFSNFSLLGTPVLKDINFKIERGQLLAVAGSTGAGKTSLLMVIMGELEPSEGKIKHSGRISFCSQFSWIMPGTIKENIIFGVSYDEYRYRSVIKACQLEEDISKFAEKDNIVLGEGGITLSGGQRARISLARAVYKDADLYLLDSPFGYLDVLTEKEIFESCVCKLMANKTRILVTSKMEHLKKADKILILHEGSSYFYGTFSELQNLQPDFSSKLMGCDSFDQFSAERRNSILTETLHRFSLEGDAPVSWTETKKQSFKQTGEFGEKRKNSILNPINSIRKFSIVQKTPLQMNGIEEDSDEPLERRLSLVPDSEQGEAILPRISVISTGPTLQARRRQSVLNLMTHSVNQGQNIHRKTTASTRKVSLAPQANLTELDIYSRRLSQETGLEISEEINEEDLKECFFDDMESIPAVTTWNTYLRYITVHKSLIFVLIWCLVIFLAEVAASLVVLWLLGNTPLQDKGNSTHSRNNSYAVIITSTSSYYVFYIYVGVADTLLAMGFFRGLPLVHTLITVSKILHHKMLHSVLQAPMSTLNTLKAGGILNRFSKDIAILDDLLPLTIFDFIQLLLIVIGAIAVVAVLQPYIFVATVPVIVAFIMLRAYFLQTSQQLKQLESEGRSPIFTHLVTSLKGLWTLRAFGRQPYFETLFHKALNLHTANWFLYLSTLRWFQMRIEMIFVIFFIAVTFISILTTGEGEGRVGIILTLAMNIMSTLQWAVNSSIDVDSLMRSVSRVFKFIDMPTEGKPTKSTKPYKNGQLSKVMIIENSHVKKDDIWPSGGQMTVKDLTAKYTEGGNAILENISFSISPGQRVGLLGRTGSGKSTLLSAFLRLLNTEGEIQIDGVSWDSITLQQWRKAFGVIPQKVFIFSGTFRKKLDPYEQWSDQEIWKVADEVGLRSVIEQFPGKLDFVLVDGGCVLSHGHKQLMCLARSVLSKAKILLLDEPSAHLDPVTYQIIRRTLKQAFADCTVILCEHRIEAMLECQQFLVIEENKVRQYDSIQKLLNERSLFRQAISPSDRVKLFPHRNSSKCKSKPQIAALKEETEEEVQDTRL
- measurement.protocol: Potentiation of CFTR N1303K mutant (unknown origin) expressed in rat FRT cells assessed as increase in VX-770-stimulated chloride current in presence of forskolin by short circuit method
quantity.measured: pEC50
One number for each entry, as −log10 of the molar value.

> print(dat)
                    structure.smiles.string  quantity.measured  endpoint.result
1  COc1ccc2[nH]c3c(c2c1)CCNC31CCN(Cc2cccc(F)c2F)CC1              pEC50             4.87
2  COc1ccc2[nH]c3c(c2c1)CCNC31CCN(Cc2ccc(F)cc2F)CC1              pEC50             5.70

Please state pEC50 for every compound in the list that follows.
1. COc1ccc2[nH]c3c(c2c1)CCNC31CCN(Cc2cc(F)cc(F)c2)CC1
2. COc1ccc2[nH]c3c(c2c1)CCNC31CCN(Cc2ccc(Br)c(F)c2)CC1
3. COc1ccc2[nH]c3c(c2c1)CCNC31CCN(Cc2ccccc2)CC1

Reply:
1: 4.95; 2: 5.74; 3: 4.90
